Measured TGI accompanies every entry in the list below.
- Test system: U251 CNS
- protocolDetails: NCI tumour cell line growth inhibition, 48 h

{"compound": "COc1cc(-n2cc(-c3cc(O)c(C/C=C(\\C)CCC=C(C)C)c(O)c3)nn2)cc2c1O[C@]1(C)CC[C@@H](O)C(C)(C)[C@H]1C2", "relationOperator": "=", "TGI [µM]": 10.9}
{"compound": "CC1=C(C(=O)CC(=O)C(=O)NC2C3CC4CC(C3)CC2C4)Sc2ccccc2N1 (stereo not given)", "relationOperator": ">", "TGI [µM]": 100}
{"compound": "CCN(CC)CCCCC1CCN(CC(=O)N2c3ccccc3NC(=O)CC2C)CC1 (stereo not given)", "relationOperator": ">", "TGI [µM]": 100}
{"compound": "c1cnc2[nH]cc(-c3csc(-c4cn(CCCN5CCCCC5)c5ccccc45)n3)c2c1", "relationOperator": "=", "TGI [µM]": 3.28}
{"compound": "COc1ccc(C(=O)C[C@]2(O)C(=O)Nc3c(Cl)ccc(Cl)c32)cc1", "relationOperator": ">", "TGI [µM]": 100}

---

Measured GI50 accompanies every entry in the list below.
- System: MALME-3M melanoma
- protocolDetails: NCI tumour cell line growth inhibition, 48 h

{"structureSmilesString": "Cc1ccc(/C=C2\\CNC/C(=C\\c3ccc(C)cc3)C2=O)cc1", "GI50": "2.4 µM"}
{"structureSmilesString": "Oc1[nH]c2ccccc2c1/C=c1/cc2c(c(-c3ccc(C(F)(F)F)cc3)n1)=Nc1ccccc1-2", "GI50": "9.14 µM"}
{"structureSmilesString": "CCc1cccc(CC)c1/C=C/c1cncc(C(=O)NC)c1", "GI50": "10.9 µM"}
{"structureSmilesString": "Fc1cc(-c2nnc3n2N=C(c2ccc(Cl)cc2Cl)CS3)c(Cl)cc1Cl", "GI50": "26.6 µM"}
{"structureSmilesString": "NC(=O)c1cc(I)ccc1NC(=O)COc1ccccc1", "GI50": "7.28 µM"}
{"structureSmilesString": "C[C@@H]1C/C=C\\C(=O)O[C@H](/C=C/C#C/C=C/C(C)(C)[C@@H](O)c2cccc(O)c2Br)[C@@H](C)/C=C/[C@H](C)C[C@H](OC(N)=O)C1", "GI50": "0.0419 µM"}
{"structureSmilesString": "O=C(CCN1CCCC1)Nc1ccc2c(Nc3ccccc3)c3ccccc3nc2c1", "GI50": "1.46 µM"}
{"structureSmilesString": "COc1cc(-n2cc(-c3cc(O)c(C/C=C(\\C)CCC=C(C)C)c(O)c3)nn2)cc2c1O[C@]1(C)CC[C@@H](O)C(C)(C)[C@H]1C2", "GI50": "1.38 µM"}
{"structureSmilesString": "C=CC(=O)Nc1cccc(Nc2nc(Nc3ccc(OCCOC(F)F)cc3)ncc2F)c1", "GI50": "2.49 µM"}

---

- Test system: A498 renal
- protocolDetails: NCI tumour cell line growth inhibition, 48 h
valueType: GI50

{"molecule": "COc1ccccc1/C=C\\C(=O)c1ccccc1", "targetUnderTest": "A498 renal", "reportedMeasurement": "16.3 µM"}
{"molecule": "O=C(CCN1CCCC1)Nc1ccc2c(Nc3ccccc3)c3ccccc3nc2c1", "targetUnderTest": "A498 renal", "reportedMeasurement": "0.864 µM"}
{"molecule": "Oc1[nH]c2ccccc2c1/C=c1/cc2c(c(-c3ccc(C(F)(F)F)cc3)n1)=Nc1ccccc1-2", "targetUnderTest": "A498 renal", "reportedMeasurement": "5.2 µM"}
{"molecule": "COC(=O)[C@H](Cc1ccccc1)NC(=O)c1csc([C@@H](C[C@H](C(C)C)N(C)C(=O)[C@@H](NC(=O)[C@H]2CCCN2C)C2CC2)OC(C)=O)n1", "targetUnderTest": "A498 renal", "reportedMeasurement": "1.53 µM"}
{"molecule": "Cc1n(Cc2ccc3ccccc3c2)c(Cl)c(Cl)[n+]1Cc1ccc2ccccc2c1", "targetUnderTest": "A498 renal", "reportedMeasurement": "1.56 µM"}
{"molecule": "O=C(/C=C/c1cn(-c2ccccc2)nc1-c1ccc([N+](=O)[O-])cc1)c1ccc(Cl)cc1", "targetUnderTest": "A498 renal", "reportedMeasurement": "4.99 µM"}
{"molecule": "Cc1cc(=O)oc2cc(OCCn3c(C)nn(-c4ccc(Cl)cc4)c3=O)ccc12", "targetUnderTest": "A498 renal", "reportedMeasurement": "1.13 µM"}
{"molecule": "CCCn1cnc2c(SCc3ccccc3)nc(N)nc21", "targetUnderTest": "A498 renal", "reportedMeasurement": "19.7 µM"}
{"molecule": "C=CC1=CC(C)C[C@]1(O)C(=O)OC (stereo partly specified)", "targetUnderTest": "A498 renal", "reportedMeasurement": "> 100 µM"}
{"molecule": "CCc1cccc(CC)c1/C=C/c1cncc(C(=O)NC)c1", "targetUnderTest": "A498 renal", "reportedMeasurement": "8.68 µM"}
{"molecule": "O=C(Cc1ccc(/C=C/C(=O)c2ncc[nH]2)cc1)Nc1ccc(C(F)(F)F)cc1", "targetUnderTest": "A498 renal", "reportedMeasurement": "4.73 µM"}

Cited source for all entries: PubChem BioAssay (NCI)
